System: MCF7
PROTOCOL TEXT: area over the GR curve, 72 h; higher = more effect;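 also: Dye Drop or Deep Dye Drop imaging of viable cells in 384-well plates (Hoechst nuclei, LIVE/DEAD dye), nine half-log doses, GR normalized to DMSO controls and time-zero plates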
Label T for high-side area over the GR curve (at or above 0.3 GR) and F for low-side area over the GR curve (below it).

Examples with answers:
Data request: Decide: is the reported value of area over the GR curve for CN(C)CC[C@H](CSc1ccccc1)Nc1ccc(S(=O)(=O)NC(=O)c2ccc(N3CCN(Cc4ccccc4-c4ccc(Cl)cc4)CC3)cc2)cc1[N+](=O)[O-] [ABT-737] (max 10 µM) equal to or greater than 0.3 GR?
Data returned: F

Data request: Decide: is the reported value of area over the GR curve for CC(C)Nc1cc(-c2c[nH]c(C(=O)N[C@H](CO)c3cccc(Cl)c3)c2)c(Cl)cn1 [BVD523] (max 10 µM) equal to or greater than 0.3 GR?
Data returned: F

Data request: Decide: is the reported value of area over the GR curve for NC(=O)Nc1cc(-c2cccc(F)c2)sc1C(=O)N[C@H]1CCCNC1 [AZD7762] (max 10 µM) equal to or greater than 0.3 GR?
Data returned: T

Data request: Decide: is the reported value of area over the GR curve for N.N.[Cl][Pt][Cl] [Cisplatin] (max 10 µM) equal to or greater than 0.3 GR?
Data returned: F

Data request: Decide: is the reported value of area over the GR curve for Cc1nc(-c2cn3c(n2)-c2ccc(-c4cnn(C(C)(C)C(N)=O)c4)cc2OCC3)n(C(C)C)n1 [Taselisib/GDC0032] (max 10 µM) equal to or greater than 0.3 GR?
Data returned: T

***
Data request: Decide: is the reported value of area over the GR curve for CC[C@@H]1C(=O)N(C)c2cnc(Nc3ccc(C(=O)N[C@H]4CC[C@H](N5CCN(CC6CC6)CC5)CC4)cc3OC)nc2N1C(C)C [Volasertib/BI6727] (max 1 µM) equal to or greater than 0.3 GR?
Data returned: T

Data request: Decide: is the reported value of area over the GR curve for CCc1cnn2c(NCc3ccc[n+]([O-])c3)cc(N3CCCC[C@H]3CCO)nc12 (max 1 µM) equal to or greater than 0.3 GR?
Data returned: T

Data request: Decide: is the reported value of area over the GR curve for CC(=O)c1c(C)c2cnc(Nc3ccc(N4CCNCC4)cn3)nc2n(C2CCCC2)c1=O (max 3.162 µM) equal to or greater than 0.3 GR?
Data returned: T

Data request: Decide: is the reported value of area over the GR curve for CNc1nc(-c2ccc3c(N)n[nH]c3c2)cc(N2C[C@@H](C(=O)NC3CCCCC3)CC[C@H]2C)n1 (max 10 µM) equal to or greater than 0.3 GR?
Data returned: F

Data request: Decide: is the reported value of area over the GR curve for C=CCn1c(=O)c2cnc(Nc3ccc(N4CCN(C)CC4)cc3)nc2n1-c1cccc(C(C)(C)O)n1 [AZD1775] (max 10 µM) equal to or greater than 0.3 GR?
Data returned: T

Data request: Decide: is the reported value of area over the GR curve for COc1cc2nccc(Oc3ccc(NC(=O)C4(C(=O)Nc5ccc(F)cc5)CC4)cc3)c2cc1OC [Cabozantinib] (max 10 µM) equal to or greater than 0.3 GR?
Data returned: F

Data request: Decide: is the reported value of area over the GR curve for O=C1NC(=NCc2cccs2)SC1=Cc1ccc2ncccc2c1 [R0-3306] (max 10 µM) equal to or greater than 0.3 GR?
Data returned: F

Data request: Decide: is the reported value of area over the GR curve for CCCCOc1c(C(=O)c2c(F)cc(C)cc2F)c[nH]c2nncc1-2 (max 10 µM) equal to or greater than 0.3 GR?
Data returned: T

// data source = the supplement of paper PMC9663587
